Test system: SK-MEL-28
EXPERIMENT_SUMMARY: NCI tumour cell line growth inhibition, 48 h
Active and inactive are the calls of the source. Cut-off read from the data, not from the text of the source: active = GI50 up to about 1.1 µM and inactive = higher.
METRIC_NAME: GI50

>>> value_reported("CSc1ccccc1NC1=NCCO1")
"> 100 µM (inactive)"
>>> value_reported("Cc1csc2nc(-c3cc([N+](=O)[O-])c(Cl)cc3Cl)c(/C=N/N=C(N)N)n12")
"16.4 µM (inactive)"
>>> value_reported("CC(C)[C@H](C)/C=C/[C@@H](C)C1CC[C@H]2[C@@]34C=C[C@]5(C[C@@H](O)CC[C@]5(C)[C@H]3CC[C@]12C)OO4 (stereo partly specified)")
"34 µM (inactive)"
>>> value_reported("NNC(N)Nc1ccccc1 (stereo unspecified)")
"> 100 µM (inactive)"
>>> value_reported("c1ccc2c(c1)N=C(NC1CCCCC1)CCN2")
"> 100 µM (inactive)"
>>> value_reported("CCOC(=O)c1nc2ccccc2nc1Nc1ccc(C(=O)OC)s1")
"> 100 µM (inactive)"

This collection of values is drawn from ChEMBL document CHEMBL1201862.
